Where these numbers come from: patent US20260317332A1

system: CD4+ T cells; assay: T Cell Proliferation Assay: CD4+ T cell proliferation; format: cell-based; settings: Homo sapiens, high AMP condition (200 μM AMP, 5 μM EHNA), CD3/CD28 beads, 72 hours, read-out: CD4+ T cell proliferation EC50 (rescue of proliferation)
Recorded measurements of EC50, one per entry
Write the answer as a number in nM, unit excluded.

So what's the measured EC50 for this one? Cn1nc(O[C@H](c2ccnc(OCC(F)F)c2)C(F)F)c2cc(-c3c[nH]c(=O)[nH]c3=O)nnc21 [Example 11B]
0.24

So what's the measured EC50 for this one? Cn1nc(O[C@H](c2cc(OCC(F)(F)F)ncn2)C(F)F)c2cc(-c3c[nH]c(=O)[nH]c3=O)nnc21 (single isomer, unassigned) [Example 35A]
0.3

So what's the measured EC50 for this one? C[C@H](Nc1cc([C@@H](Oc2nn(C)c3nnc(-c4c[nH]c(=O)[nH]c4=O)cc23)C(F)F)ccn1)C(F)(F)F [Example 26]
0.08

So what's the measured EC50 for this one? Cn1nc(O[C@H](c2ccnc(C3CC(F)(F)C3)c2)C(F)F)c2cc(-c3c[nH]c(=O)[nH]c3=O)nnc21 [Example 38]
0.06

So what's the measured EC50 for this one? COCCOc1cc([C@@H](Oc2nn(C)c3nnc(-c4c[nH]c(=O)[nH]c4=O)cc23)C(F)F)ccn1 [Example 28]
0.33

More entries:
So what's the measured EC50 for this one? O=c1[nH]cc(-c2cc(N3C[C@H](Oc4ncc(C(F)(F)F)cn4)C(F)(F)C3)c3nccn3n2)c(=O)[nH]1 [Example G351, reference compound]
8.8

So what's the measured EC50 for this one? Cn1nc(O[C@H](c2ccnc(COCC(F)(F)F)c2)C(F)F)c2cc(-c3c[nH]c(=O)[nH]c3=O)nnc21 [Example 34]
0.1

So what's the measured EC50 for this one? Cn1nc(O[C@H](c2ccnc(OCC(F)(F)F)c2)C(F)F)c2cc(-c3n[nH]c(=O)[nH]c3=O)nnc21 [Example 12]
0.15

So what's the measured EC50 for this one? Cn1nc(O[C@H](c2ccc3cnn(CC(F)(F)F)c3c2)C(F)F)c2cc(-c3c[nH]c(=O)[nH]c3=O)nnc21 [Example 24]
0.19

###

target: CD73 (Homo sapiens); assay: CD73 Cellular Assay; format: cell-based; design: 40 μL of MDA-MB-231 cells (ATCC, HTB-26, breast cancer); host or cells: MDA-MB-231; conditions: MDA-MB-231 cells; 200 μM AMP working solution; 45 min at 37° C.; malachite readout; read-out: Cellular IC50 against CD73
Sequence (P21589 27-574): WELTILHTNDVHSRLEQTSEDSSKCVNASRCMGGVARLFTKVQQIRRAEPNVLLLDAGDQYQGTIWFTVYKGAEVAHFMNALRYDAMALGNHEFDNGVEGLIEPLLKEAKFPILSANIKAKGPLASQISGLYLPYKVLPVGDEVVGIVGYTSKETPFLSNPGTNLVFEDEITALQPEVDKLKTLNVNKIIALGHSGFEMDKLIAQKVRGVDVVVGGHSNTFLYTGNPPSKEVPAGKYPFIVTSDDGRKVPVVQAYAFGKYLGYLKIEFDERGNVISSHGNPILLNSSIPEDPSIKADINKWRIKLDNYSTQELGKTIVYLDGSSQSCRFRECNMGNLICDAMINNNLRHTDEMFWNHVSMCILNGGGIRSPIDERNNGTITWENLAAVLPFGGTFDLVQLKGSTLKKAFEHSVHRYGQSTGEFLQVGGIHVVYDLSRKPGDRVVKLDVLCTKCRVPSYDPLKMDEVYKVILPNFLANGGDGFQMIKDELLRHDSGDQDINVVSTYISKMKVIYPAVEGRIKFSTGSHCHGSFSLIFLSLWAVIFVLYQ
observed property: pIC50
Just the number, please; pIC50 means minus log10 of the concentration in mol/L.

Consider the reported pIC50 for these compounds:
So what's the measured pIC50 for this one? Cn1nc(O[C@H](c2ccnc(COC3CC3)c2)C(F)F)c2cc(-c3c[nH]c(=O)[nH]c3=O)nnc21
9.68

So what's the measured pIC50 for this one? Cn1nc(O[C@H](c2ccc3cnn(CC(F)(F)F)c3c2)C(F)F)c2cc(-c3c[nH]c(=O)[nH]c3=O)nnc21
9.36

So what's the measured pIC50 for this one? CCOc1cc([C@@H](Oc2nn(C)c3nnc(-c4c[nH]c(=O)[nH]c4=O)cc23)C(F)F)ccn1
9.29

More entries:
So what's the measured pIC50 for this one? Cn1nc(O[C@H](c2ccc3c(c2)N(CC(F)(F)F)CCO3)C(F)F)c2cc(-c3c[nH]c(=O)[nH]c3=O)nnc21
8.89

So what's the measured pIC50 for this one? C[C@H](OC1CC1)c1cc([C@@H](Oc2nn(C)c3nnc(-c4c[nH]c(=O)[nH]c4=O)cc23)C(F)F)ccn1 (single isomer, unassigned) [Example 37A]
9.06

So what's the measured pIC50 for this one? Cn1nc(O[C@H](c2ccnc(OCC(F)F)c2)C(F)F)c2cc(-c3n[nH]c(=O)[nH]c3=O)nnc21 [Example 13A]
9.01
